Biological target: T1, FLAG-Hs_FPR2 C-terminally fused to Renilla Luciferase 8 (human, UniProt P25090 1-351)
T1 sequence (looked up): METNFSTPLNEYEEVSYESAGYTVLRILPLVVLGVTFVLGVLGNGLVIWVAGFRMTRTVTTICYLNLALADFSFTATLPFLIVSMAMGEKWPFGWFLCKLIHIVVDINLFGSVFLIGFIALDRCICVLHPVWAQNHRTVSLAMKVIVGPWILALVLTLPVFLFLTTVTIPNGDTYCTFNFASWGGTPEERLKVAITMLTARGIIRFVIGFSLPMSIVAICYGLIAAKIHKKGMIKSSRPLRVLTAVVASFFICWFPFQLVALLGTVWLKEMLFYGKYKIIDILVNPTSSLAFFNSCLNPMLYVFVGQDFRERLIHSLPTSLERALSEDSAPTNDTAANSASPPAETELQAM
Test: cell-based or functional assay
Where no end group is shown, it is not given here. [ ]: non-standard residue; d: D form. The star is where a group is joined. Palmitoyl = CCCCCCCCCCCCCCCC(=O)*; For = O=C*
Property Label: BRET of receptor-RLuc8 with Venus-mGsi: Log EC50 (M) (log M)
Kindly answer with a numeric value in log M, unit omitted.

For-Met-Leu-Phe [fMet-Leu-Phe (fMLF)]; -4.05
For-MTPMRKINPLMKLIN [MCT-2 (Formyl-MTPMRKINPLMKLIN from Cytochrome b)]; -6.23
For-MLFK [fMet-Leu-Phe-Lys (fMLFK)]; -4.57

Q. # input binder: WKYMV[dM] (the last residue is the D form; the bought peptide is probably also an amide (surmise); source: bought: Tocris) [WKYMVm] ; wanted: its BRET of receptor-RLuc8 with Venus-mGsi: Log EC50 (M)
A. -8.11

Q. # input binder: {Palmitoyl-Palmitoyl}-KIHKKGMIKS (Pal is printed twice; the text speaks of N-terminal palmitoylation as the last step of the synthesis; also called pepducin; source: synthetic peptide (Fmoc solid phase, purified by preparative RP-HPLC)) [F2Pal10 (Pal-Pal-KIHKKGMIKS)] ; wanted: its BRET of receptor-RLuc8 with Venus-mGsi: Log EC50 (M)
A. -6.78
